# PROTOCOL: qHTS assay for cell viability of HEK293 cells (AID 743288); also: % is scaled to controls: 0 for no effect and ±100 for the full control effect; nearly all actives have a fitted effect of over 50% in size
# MEASUREMENT_CONDITIONS: ATP luminescence (CellTiter-Glo), 18 h; hits give low values
Results filed as inconclusive are left out.
PROPERTY_LABEL: max response (%)
Give just the number in %; leave the unit off.

Given the entry O=C(O)c1cc(=O)[nH]c(=O)[nH]1 , report its measured max response.
-10.9

Given the entry Cc1cc(NS(=O)(=O)c2ccc(N)cc2)no1 , report its measured max response.
-9.46

Given the entry S=P(N1CC1)(N1CC1)N1CC1 , report its measured max response.
-14.8

Given the entry Cc1ccnc2c1NC(=O)c1cccnc1N2C1CC1 , report its measured max response.
-6.97

Given the entry NNC(=O)c1ccncc1 , report its measured max response.
-4

Given the entry N[C@@H](Cc1ccc(O)c(O)c1)C(=O)O , report its measured max response.
4.23

Given the entry Cc1nnc(NS(=O)(=O)c2ccc(N)cc2)s1 , report its measured max response.
0.46

Given the entry CC(=O)CC(c1ccccc1)c1c(O)c2ccccc2oc1=O (centres undefined) , report its measured max response.
0.884

Given the entry OC(Cn1cncn1)(Cn1cncn1)c1ccc(F)cc1F , report its measured max response.
-6.93

----------
# PROTOCOL: MultiTox-Fluor Cytotoxicity Assay - LYMP1-001 - Dead Cells (AID 946);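 also: cells exposed to compound for 16 h; 0% = DMSO and 100% = tetraoctylammonium bromide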
# MEASUREMENT_CONDITIONS: LYMP1-001 lymphoblastoid cells, dead-cell protease fluorescence; series mostly up to 92.2 µM
# Source text: NIH Chemical Genomics Center [NCGC] NIH Molecular Libraries Screening Centers Network [MLSCN] National Institutes of Environmental Health Sciences [NIEHS] National Toxicology Program [NTP] We have developed a 1536-well cell-based assay for quantitative high throughput screening (qHTS) against a number of cell lines to determine in vitro cytotoxicity of small molecules. […] 8. Detection; dead-cell fluorescence (Ex/Em=485/520); EnVision plate reader […]
Inconclusive results are not listed. The source made the active and inactive calls. Calls follow the shape of the dose curve; as a rule, active = well fitted cell-killing curve with a large enough effect; inconclusive = small, poorly fitted or top-dose-only effect, or effect the other way; inactive = flat fitted curve, though single readings scatter.
PROPERTY_LABEL: outcome

{"columns": ["COMPOUND", "outcome"],
 "data": [
  ["N=C(N)c1ccc(OCCCCCOc2ccc(C(=N)N)cc2)cc1", "inactive"],
  ["Cc1ncc([N+](=O)[O-])n1CCO", "inactive"],
  ["NNC(=O)c1ccncc1", "inactive"],
  ["Cc1cc(NS(=O)(=O)c2ccc(N)cc2)no1", "inactive"],
  ["O=C(N[C@H](CO)[C@H](O)c1ccc([N+](=O)[O-])cc1)C(Cl)Cl", "inactive"]
]}

Given the entry Cc1nnc(NS(=O)(=O)c2ccc(N)cc2)s1 , report its measured outcome.
inactive

Given the entry CC1=NN(c2ccccc2)C(=O)C1 , report its measured outcome.
inactive

----------
# PROTOCOL: Quantitative High-Throughput drug screen in 47 multiple myeloma cell lines against the NCATS MIPE library collection: OCIMY5_PLB cell viability assay (AID 1918988); also: nearly all actives have a fitted effect of over 65% in size
# MEASUREMENT_CONDITIONS: OCI-MY5 myeloma viability, ATP luminescence, 48 h; series mostly up to 45.8 µM
Records with an inconclusive call do not appear. The source made the active and inactive calls. Calls come from the whole dose curve; as a rule, active = well fitted cell-killing curve with a large enough effect; inconclusive = small, poorly fitted or top-dose-only effect, or effect the other way; inactive = no such curve, though single readings can be large or run the other way.
Answer with one of the outcomes given here: t for active, f for inactive

Could you please tell me the result logged for CCN(C)C(=O)Oc1cccc([C@H](C)N(C)C)c1 in this assay?
f

Could you please tell me the result logged for COc1cc(NCc2ccc3nc(N)nc(N)c3c2C)cc(OC)c1OC in this assay?
t

Could you please tell me the result logged for Nc1nc(F)nc2c1ncn2[C@@H]1O[C@H](CO)[C@@H](O)[C@@H]1O in this assay?
t

Could you please tell me the result logged for NS(=O)(=O)c1cc2c(cc1Cl)NC(C(Cl)Cl)NS2(=O)=O (stereo unspecified) in this assay?
f

Could you please tell me the result logged for COc1cc2ncnc(Nc3cccc(Cl)c3)c2cc1OC in this assay?
t

Could you please tell me the result logged for C[C@@H](NCCCc1cccc(C(F)(F)F)c1)c1cccc2ccccc12 in this assay?
f
